FYI, the data here is from the RNAGym collection of RNA variant scans (doi:10.1073/pnas.2313332121).

B1: TPR 5TU (parent)
chain: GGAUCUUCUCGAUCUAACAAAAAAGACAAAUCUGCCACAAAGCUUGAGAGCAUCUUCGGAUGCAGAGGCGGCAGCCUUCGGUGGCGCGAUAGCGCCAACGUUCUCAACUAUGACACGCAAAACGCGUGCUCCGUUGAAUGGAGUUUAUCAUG

Variants of: B1
assay_text: polymerase ribozyme fitness, log enrichment relative to wild type (log ratio); higher = more active; in vitro selection for triplet polymerase activity
Fewer inactive variants are shown than the library holds.
We begin with a simple list: items and their reported polymerase ribozyme fitness (log ratio).
Lab note: jot down the number only; don't add units.

Here's what some known entries look like.
> print(dat)
   variant.designation  recorded.number
1            U13G C85A            -2.23
2           A91G U139G            -3.56
3            A26U G86A            -2.74
4      G84A C85U G143A            -1.63
5            U31G G65A            -1.83

Kindly note the recorded polymerase ribozyme fitness (log ratio) for C96A G128U , which is -2.45

Kindly note the recorded polymerase ribozyme fitness (log ratio) for C85G U135C , which is -3.66

Kindly note the recorded polymerase ribozyme fitness (log ratio) for G58U C69A G83A , which is -1.52

Kindly note the recorded polymerase ribozyme fitness (log ratio) for A28U A37C C79U C87U , which is -3.89
